All figures here come from the nanobody polyreactivity screen of Harvey et al. (2022).

assayText: yeast display, Sf9 membrane polyspecificity reagent, FACS + sequencing; frameworks hold sequencing errors
measurementKind: polyreactivity (PSR sort gate)

Sample records with polyreactivity (PSR sort gate):
>  <biosequence>
QVQIVESGGGLVQAGGSLRLSCAASGSIFRRYAMGWYRQEPGKERELVAAISSNGGSTYNADSVKGRFTISRDNAKNTVYLQMNSLKPEDTAVYYCNAPPLYRDEYWGQGTQVSVSS

>  <result>
high polyreactivity

$$$$
>  <biosequence>
QVQLVESGGGLVQAGGSLRLSCAASGFIFAPNAMGWYRQAPGKERELVAAISHSGASTFYADSVKGRFTISRDYAKNTVYLQMNSLKPEDTAVYYCGAPPYYSYDYWRQGTQVTVSS

>  <result>
low polyreactivity

$$$$
>  <biosequence>
QVQLVESGGGLVQAGGSLRLICAASGSTFQLYAMGWYRQAPGKERDLFAAISGIGDSTYYADSVKGRFTISRDNAKITVYLQMNSLKPEDTAVYYCAREFSDGLSGKFDYWGQRTQVTVSS

>  <result>
low polyreactivity

$$$$
>  <biosequence>
QVQLVESGGGLVQAGGSLRLSCAASGFTIWQNAMGWYRQAPGKERELVAGIRLSGGSTYADSVKGRFTISRDNAKNTVYLQMNSLKPEDTAVYYCAARIAGYYRYRYSYGYWGQGTQVTVSS

>  <result>
high polyreactivity

$$$$
>  <biosequence>
QVQLVESGGGLVQAGGSLRLSCAASGITFFVYAMGWYRQAPGKERELVAAITSGDSTSYADSVKGRFTISRDNAKNTVYLQMNSLKPEDTAVYYCAAEQVTIEDGVYFDFNSWGQGTQVTVSS

>  <result>
low polyreactivity

$$$$
>  <biosequence>
QVQLVESGGGLVQAGGSLRLSCAASGFTFSPNAMGWYRQAHGKESELVAAIDWSGDRTYYADSVKGRFTISRDNAKKTVYLQINSLKPEDTAVYYCNVVRRSPGDYTYYYWGQGTQVTVSS

>  <result>
low polyreactivity

$$$$
>  <biosequence>
QVQLVESGGGLVQAGGSLRLSCAASGRTLGYYAMGWYRQAPGKERELVAAISGSGGITYYADSVKGRFTISRDNAKNTVYLQMNSLKPEDTAVYYCNVDPTAKWFNYDSWGQGTQVTVSS

>  <result>
low polyreactivity

$$$$
>  <biosequence>
QVQLVESGGGLVQAGGSLRLSCAASGRTFNVNAMGWYRQAPGKERELVAAISSSGTTNYADSVKGRFTISRDNAKNTVYLQMNSLKPEDTAVYYCNKRWRDKYPQYDYWGQGTQVTVSS

>  <result>
low polyreactivity

$$$$
>  <biosequence>
QVQLVESGGGLVQAGGRLRLSCAASGGIFGQNAMRWYRQAPGKERELVAGISASGGSTYYADSVKGRFTISRDNAKNTVYLQRNSLKPEDTAVYYCAARTKRRRYDYWGQGTQVTVSS

>  <result>
high polyreactivity

$$$$
>  <biosequence>
QVQLVESGGGLVQAGGSLRLSCAATGRTSTYYPMGWYRQAPGKERELVAAIRSGTITNYADSVKGRFTISRDNAKNTVYLQMNSLKPEDSAVYYCAAKYRYSTYHRGSFNYWGQGTQVTVSS

>  <result>
high polyreactivity

$$$$

Could you share which polyreactivity (PSR sort gate) value was measured for `QVQLVESGGGLVQAGGSLRLSCAASGSIFAGYAMGWYRQAPGKERELVATITSGGSTNYADSVKGRFTISRDNAKNTVYFHMNSLKPEVTAVYYCAADVEDSIPSSYTGGEYDYWGQCTQVTVSS` ?
low polyreactivity
